test: qHTS assay to identify small molecule agonists of the farnesoid-X-receptor (FXR) signaling pathway - cell viability counter screen (AID 743218); also: % is scaled to controls: 0 for no effect and ±100 for the full control effect; nearly all actives have a fitted effect of over 45% in size
statedConditions: FXR-bla HEK293T viability, CellTiter-Glo luminescence, 16 h; series mostly up to 62.6 µM
Records with an inconclusive call do not appear. The source made the active and inactive calls. Calls follow the shape of the dose curve; as a rule, active = well fitted cell-killing curve with a large enough effect in the repeat runs; inconclusive = weak or mixed curves, or effect the other way; inactive = no such curve, though single readings can be large or run the other way.
quantityName: viability change, negative = cytotoxic

Worked cases, answers included:
compound	recordedMeasurement
COc1cccc(OC)c1C(=O)N[C@@H]1C(=O)N2[C@@H]1SC(C)(C)[C@@H]2C(=O)O	inactive
CN1CCN(c2cc3c(nn2)Oc2ccccc2N3C)CC1	inactive
CO[Si](C)(OC)c1ccccc1	inactive
CCOC(=O)C(=O)CCCCCCl	inactive
CCOc1ccccc1OCC	inactive
CCOC(=O)CCC(=O)OCC	inactive
c1ccc2sc(SN3CCOCC3)nc2c1	inactive
CCN(C=O)CC	inactive

Exercise: Suppose we examine the compound Nc1ccncc1N ; what viability change, negative = cytotoxic value has been reported?
Solution: inactive

Exercise: Looking for the measured viability change, negative = cytotoxic of CCOC(=O)c1cnc2c(cnn2CC)c1NN=C(C)C , can you help?
Solution: inactive

###

testSystem: Glucocorticoid receptor (Homo sapiens)
test: qHTS assay to identify small molecule agonists of the glucocorticoid receptor (GR) signaling pathway (AID 720691); also: % is scaled to controls: 0 for no effect and ±100 for the full control effect
statedConditions: GR-bla HeLa, beta-lactamase reporter ratio, 18 h; series mostly up to 62.4 µM
Results filed as inconclusive are left out. Calls of active or inactive are those of the source. Calls come from the whole dose curve; as a rule, active = well fitted activation curve with a large enough effect in the signal ratio in the repeat runs (not every such curve was filed as active); inconclusive = weak or mixed curves, or effect the other way; inactive = no such curve, though single readings can be large or run the other way; the % refers to the signal ratio.
quantityName: outcome

Solved entries (count: 10):
molecule	testSystem	outcome
Cc1ncc(COP(=O)(O)O)c(C=O)c1O	Glucocorticoid receptor (Homo sapiens)	inactive
COCCOC[C@H](CC1(C(=O)NC2CCC(C(=O)O)CC2)CCCC1)C(=O)Oc1ccc2c(c1)CCC2 (some centres not stated)	Glucocorticoid receptor (Homo sapiens)	inactive
CC[N+](CC)(CC)CCOc1cccc(OCC[N+](CC)(CC)CC)c1OCC[N+](CC)(CC)CC	Glucocorticoid receptor (Homo sapiens)	inactive
CCCC[N+](C)(CCCC)CCCC	Glucocorticoid receptor (Homo sapiens)	inactive
CO/N=C(\C(=O)N[C@@H]1C(=O)N2C(C(=O)O)=C(CSc3nc(=O)c(O)nn3C)CS[C@H]12)c1csc(N)n1	Glucocorticoid receptor (Homo sapiens)	inactive
CCCOC(=O)CC	Glucocorticoid receptor (Homo sapiens)	inactive
CCC(C)(CCCC(C)C)OC(C)=O (configuration not stated)	Glucocorticoid receptor (Homo sapiens)	inactive
COc1cc(C)nc(-n2nc(C)cc2OC)n1	Glucocorticoid receptor (Homo sapiens)	inactive
C=C(C)C(=O)OCC1CCCO1 (configuration not stated)	Glucocorticoid receptor (Homo sapiens)	inactive
C[C@@H]1CCC[C@H](C)N1	Glucocorticoid receptor (Homo sapiens)	inactive

Exercise: Quick check: outcome of Cc1ccnc(NS(=O)(=O)c2ccc(N)cc2)n1 ?
Solution: inactive

Exercise: Reported outcome, molecule CCOC(=O)COc1cc(-n2ncc(C(F)(F)F)c(C)c2=O)c(F)cc1Cl : ____
Solution: inactive

###

testSystem: Cytochrome P450 3A4 (Homo sapiens)
test: Cytochrome P450 Family 3 Subfamily A Member 4 (CYP3A4) small molecule antagonists: luciferase reporter qHTS assay (AID 1671201); also: nearly all actives have a fitted effect of over 50% in size
statedConditions: P450-Glo CYP3A4 enzyme, luciferin luminescence, 1 h; series mostly up to 115 µM
Inconclusive results are not listed. The source made the active and inactive calls. Calls come from the whole dose curve; as a rule, active = well fitted inhibition curve with a large enough effect in the repeat runs; inconclusive = weak or mixed curves; inactive = no such curve, though single readings can be large or run the other way.
Lab note: assign the record to one of TRUE = active, FALSE = inactive

molecule	cat
C1CCC2(CCCCO2)OC1	FALSE
CCC(C(=O)NC(=O)NC(C)=O)c1ccccc1 (stereo unspecified)	FALSE
[K+]	FALSE
CC(CO)(CO)[N+](=O)[O-]	FALSE

Exercise: Fill in: this test's call for CC1=NS(=O)(=O)c2cc(Cl)ccc2N1 is ___
Solution: FALSE

Exercise: How did this test come out for O=C(O)Cc1csc(-c2ccc(Cl)cc2)n1 ?
Solution: FALSE

Exercise: Look up the recorded call for CCCO[Si](OCCC)(OCCC)OCCC in this test.
Solution: FALSE

Exercise: What did the test return for CCCCCCCCCCCCSC ?
Solution: FALSE

Exercise: Check the results log: what was the call for Cc1ccc(C(=O)c2ccccc2)cc1 ?
Solution: FALSE

Exercise: Which outcome was entered for the molecule CCN(C=O)CC in this test?
Solution: FALSE

Exercise: # fetch the recorded call for CCCCOC(=O)CCC(C)=O here
Solution: FALSE

Exercise: Hi, sorry to bother you, what did the test record for C=CN1CCCCCC1=O ?
Solution: FALSE

Exercise: Can you look up the reported call for CCOC(=O)C(=O)CCCCCCl for me?
Solution: FALSE

Exercise: What is the recorded call for this molecule in the test? NC(=O)N[C@@H](CCC(=O)O)C(=O)O
Solution: FALSE

Exercise: Which result was noted for this molecule in the test: CNCCO
Solution: FALSE

Exercise: Kindly provide the recorded test outcome for the following molecule: CC(C)(C)OC(=O)c1cccc(N)c1
Solution: TRUE

Exercise: Each molecule tested received a call. Report the one for CN1[C@@H]2CC[C@H]1CC(OC(=O)C(O)c1ccccc1)C2 (stereo partly specified) .
Solution: FALSE

Exercise: Outcome logged for OCCc1ccccn1 in this assay:
Solution: FALSE

Exercise: Outcome? CCCCOCCOC(=O)CCCCCCCCC(=O)OCCOCCCC
Solution: FALSE

Exercise: State the result this test recorded for Cc1ccccc1N=C(N)N=C(N)N .
Solution: FALSE

###

test: qHTS assay to identify small molecule agonists of the AP-1 signaling pathway - cell viability counter screen (AID 1159525); also: nearly all actives have a fitted effect of over 55% in size
statedConditions: ME-180 AP-1-bla cells viability, ATP luminescence, 5 h; series mostly up to 76.8 µM
Experimental: National Center for Advancing Translational Sciences [NCATS] NIH Chemical Genomics Center [NCGC] U.S. Environmental Protection Agency [EPA] National Institutes of Environmental Health Sciences [NIEHS] National Toxicology Program [NTP] […] After the plates were read for Beta-Lactamase assay on Envision; 3 ul Cell Titer Glo (Promega) was added to measure the cytotoxicity and the plates were then incubated at RT in dark for 30 min. […] ViewLux data was expressed as relative luminescence units. […]
Inconclusive results are not listed. Activity calls are given as the source filed them. Calls follow the shape of the full dose curve.

molecule	viability change, negative = cytotoxic
Cc1ccc(C(=O)c2ccccc2)cc1	inactive
C[N+]12CCC(CC1)C(OC(=O)C(O)(c1ccccc1)c1ccccc1)C2 (stereo not drawn)	inactive
CC(=O)N[C@H]1[C@H]([C@H](O)[C@H](O)CO)OC(C(=O)O)=C[C@@H]1N=C(N)N	inactive

###

test: A CellTox Green Cytotoxicity Assay to monitor cytotoxicity in HepG2 cells - 8 hour (AID 1224890); also: % is scaled to controls: 0 for no effect and ±100 for the full control effect; nearly all actives have a fitted effect of over 45% in size
statedConditions: CellTox Green fluorescence; series mostly up to 76.8 µM
Inconclusive results are not listed. Calls of active or inactive are those of the source. Calls follow the shape of the dose curve; as a rule, active = well fitted activation curve with a large enough effect in the repeat runs; inconclusive = weak or mixed curves; inactive = flat fitted curve, though single readings scatter.
quantityName: cytotoxicity increase

compound	cytotoxicity increase
CCOCC(C)O (centres undefined)	inactive
CC(N)C12CC3CC(CC(C3)C1)C2 (centres undefined)	inactive
c1coc(CNc2ncnc3nc[nH]c23)c1	inactive
CC(=O)N1C[C@H](O)C[C@H]1C(=O)O	inactive
NC(N)=NCCN1CCCCCCC1	-11.3% [at 0.29 µM] (inactive)

Exercise: What cytotoxicity increase value was documented for this compound, CCOc1ccccc1OCC ?
Solution: inactive

Exercise: I have this compound here, CCCCN(CCC(=O)OCC)C(C)=O , and I need its recorded cytotoxicity increase.
Solution: inactive

Exercise: So what's the measured cytotoxicity increase for this one? C=C[Si](OC(C)=O)(OC(C)=O)OC(C)=O
Solution: inactive

Exercise: Field request: cytotoxicity increase | item: Cc1ncc(COP(=O)(O)O)c(C=O)c1O
Solution: inactive

Exercise: Look at this compound and give its reported cytotoxicity increase. NC(=O)NC1N=C([O][Al])NC1=O (centres undefined)
Solution: inactive

Exercise: Returns the measured cytotoxicity increase for the input compound. Input: CC(C)NNC(=O)c1ccncc1
Solution: inactive

Exercise: I am curious: what cytotoxicity increase value has been reported for C[N+](C)(CCOc1ccccc1)Cc1cccs1 ?
Solution: inactive

Exercise: Request the reported cytotoxicity increase associated with C[C@H]1[C@H](NC(=O)/C(=N/OC(C)(C)C(=O)O)c2csc(N)n2)C(=O)N1S(=O)(=O)O (stereo in doubt)
Solution: inactive

Exercise: Entry COc1ccccc1OCC1CNC(=O)O1 (centres undefined) has what cytotoxicity increase?
Solution: inactive

###

test: qHTS assay to identify small molecule agonists of the AP-1 signaling pathway - cell viability counter screen (AID 1159525); also: nearly all actives have a fitted effect of over 55% in size
statedConditions: ME-180 (cervical carcinoma) AP-1-bla cells viability, ATP luminescence, 5 h; series mostly up to 76.8 µM
Description: National Center for Advancing Translational Sciences [NCATS] NIH Chemical Genomics Center [NCGC] U.S. Environmental Protection Agency [EPA] National Institutes of Environmental Health Sciences [NIEHS] National Toxicology Program [NTP] […] After the plates were read for Beta-Lactamase assay on Envision; 3 ul Cell Titer Glo (Promega) was added to measure the cytotoxicity and the plates were then incubated at RT in dark for 30 min. […] ViewLux data was expressed as relative luminescence units. […]
Inconclusive results are not listed. Calls of active or inactive are those of the source. The call rests on the fitted dose curve. Where a SMILES comes first, the peptide text is derived from it. [ ]: non-standard residue; d: D form. pGlu = O=C1CC[C@@H](C(=O)O)N1

compound	viability change, negative = cytotoxic
CCNC(=O)[C@@H]1CCCN1C(=O)[C@H](CCCN=C(N)N)NC(=O)[C@H](CC(C)C)NC(=O)CNC(=O)[C@H](Cc1ccc(O)cc1)NC(=O)[C@H](CO)NC(=O)[C@H](Cc1c[nH]c2ccccc12)NC(=O)[C@H](Cc1cnc[nH]1)NC(=O)[C@@H]1CCC(=O)N1 ([pGlu]HWSYGLRP-NHEt)	inactive
CC[C@H]1OC(=O)[C@H](C)[C@@H](O[C@H]2C[C@@](C)(OC)[C@@H](O)[C@H](C)O2)[C@H](C)[C@@H](O[C@@H]2O[C@H](C)C[C@H](N(C)C)[C@H]2O)[C@](C)(OC)C[C@@H](C)C(=O)[C@H](C)[C@@H](O)[C@]1(C)O	inactive
